molecular target: T1, biotinylated human plasma Kallikrein (human, UniProt P03952 20-638, biotinylated); assay: phage binding assay, signal:background
T1 construct: also called Biotinylated hPK
T1 sequence (P03952 20-638 limits assumed): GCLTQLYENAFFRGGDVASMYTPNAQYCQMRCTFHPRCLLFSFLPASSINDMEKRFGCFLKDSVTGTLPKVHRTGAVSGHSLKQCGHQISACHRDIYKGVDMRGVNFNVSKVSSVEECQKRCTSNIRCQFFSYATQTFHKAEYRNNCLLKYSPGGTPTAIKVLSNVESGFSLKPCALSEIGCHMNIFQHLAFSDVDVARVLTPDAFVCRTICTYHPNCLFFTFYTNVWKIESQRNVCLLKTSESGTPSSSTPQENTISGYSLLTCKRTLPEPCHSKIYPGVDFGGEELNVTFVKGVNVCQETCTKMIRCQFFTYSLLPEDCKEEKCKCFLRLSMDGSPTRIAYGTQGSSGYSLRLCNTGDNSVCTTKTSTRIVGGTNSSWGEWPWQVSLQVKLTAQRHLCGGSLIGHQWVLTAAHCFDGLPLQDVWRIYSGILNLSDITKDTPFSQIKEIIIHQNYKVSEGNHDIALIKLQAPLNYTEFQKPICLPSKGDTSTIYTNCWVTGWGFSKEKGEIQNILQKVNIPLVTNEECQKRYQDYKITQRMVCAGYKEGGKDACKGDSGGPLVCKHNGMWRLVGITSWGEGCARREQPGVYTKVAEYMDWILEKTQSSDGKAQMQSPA
Numbered stars: 1 amine (or outer) side, 2 acyl side, 3 side chain; on linkers, the order of the positions; unused ones are H or OH. Bridge positions count the residues as written; N and C are the ends. Ends that are not written are not given here. TBMB = c1c(C[*:1])cc(C[*:3])cc1C[*:2]
We label by threshold. Values of Binding assay signal strictly beneath 70 are rule met. Values of 70 and up are rule not met.

Field: example entries. Status: answers known.
hey, is Binding assay signal for CTWPARCTHQAFC (linker 1-7-13 via TBMB) [SEQ ID NO 160] lower than 70 or not?
rule met

Moving on to the next binder: CAWPARCTHVDLC (linker 1-7-13 via TBMB (inferred)) [SEQ ID NO 127]
rule not met

Moving on to the next binder: CTWPARCLHQHMC (linker 1-7-13 via TBMB (inferred)) [SEQ ID NO 154]
rule met

Moving on to the next binder: CSWPARCLHTDLC (linker 1-7-13 via TBMB (inferred)) [SEQ ID NO 126]
rule not met

***
hey, is Binding assay signal for CAWPARCTHQTMC (linker 1-7-13 via TBMB (inferred)) [SEQ ID NO 153] lower than 70 or not?
rule met

Moving on to the next binder: CAWPARCLHADMC (linker 1-7-13 via TBMB (inferred)) [SEQ ID NO 150]
rule met

Moving on to the next binder: CSWPARCTHDDLC (linker 1-7-13 via TBMB (inferred)) [SEQ ID NO 119]
rule not met
